Hello, the source for this data is paper PMC6398930, in case you need it.

Assay: Intrinsic and predicted hepatic clearance in human liver microsomes
Type: in vitro ADME
Details: human, liver microsomes
endpoint-name: CLint scaled (mL/min/kg)

# count of solved cases: 6
molecule: Cc1cc(NC(=O)Cn2nnc(-c3ccccc3)n2)n(CC2CCCCC2)n1 [15q]
uom: mL/min/kg
CLint scaled: 753
--
molecule: Cc1cc(NC(=O)Cn2nnc(-c3ccccc3)n2)n(C2CCC(F)(F)CC2)n1 [15d]
uom: mL/min/kg
CLint scaled: 77.3
--
molecule: Cc1cc(NC(=O)Cn2nnc(-c3ccccc3)n2)n(C2CCCCC2)n1 [15a]
uom: mL/min/kg
CLint scaled: 186
--
molecule: Cc1cc(NC(=S)Cn2nnc(-c3ccccc3)n2)n(C2CCCCC2)n1 [15b]
uom: mL/min/kg
CLint scaled: 346
--
molecule: Cc1cc(NC(=O)Cn2nncc2-c2ccccc2)n(C2CCCCC2)n1 [17b]
uom: mL/min/kg
CLint scaled: 209
--
molecule: Cc1cc(NC(=O)Cn2nnc(-c3ccc(Cl)c(Cl)c3)n2)n(C2CCCCC2)n1 [16d]
uom: mL/min/kg
CLint scaled: 99.9

1: Cc1cc(NC(=O)Cn2cc(-c3ccccc3)nn2)n(C2CCCCC2)n1 [17a]
2: Cc1cc(NC(=O)Cn2nnc(-c3cccc(F)c3)n2)n(C2CCCCC2)n1 [16g]
IN: Just curious, which one has the larger CLint scaled reading, 1 or 2 ? Reply with the label of the item you choose.
OUT: 2
(2: 162 mL/min/kg, 1: 54.6 mL/min/kg)
